Hello, the source for this data is the supplement of paper PMC7125110, in case you need it.

# KM annotations
B1: glmS ribozyme (parent)
chain: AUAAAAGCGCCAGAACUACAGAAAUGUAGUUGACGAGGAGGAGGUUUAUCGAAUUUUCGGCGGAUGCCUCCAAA

Variants of: B1
Assay Explanation: KM; higher = weaker cofactor use; RNA array
Measurement Setup: with glucosamine-6-phosphate
The response must be a number in µM with no trailing unit.

>>> reported_value("AUAAAAGCGCCAGCACUACAGAAAUGUAGUUGACGAGGAGGAGGUUUAGCGAAUUUUCGGCGGAUGCCUCCAAA [A14C U49G]")
6690
>>> reported_value("AUAAAAGCGCCAGAACUACAGAAAUGUAGUUGACGAGGAGGAGGUUUAUCGAAUUCUCGACGGAUGCCUCCAAA [U56C G60A]")
1070
>>> reported_value("AUAAAAGCGCCAGAACUACAGAAAUGUAGUUGACGAGGAGGAGGUUUAUCGAAGUUUAGGCGGAUGCCUCCAAA [U54G C58A]")
2870
>>> reported_value("AUAAAAGCGCCAGAGUUACAGAAAUGUAGUUGACGAGGAGGAGGUUUAUCGAAUUUUCGGCGGAUGCCUCCAAA [A15G C16U]")
876
>>> reported_value("AUAAAAGCGCCCGAACUACAGAAAUGUAGUUGACGAGGAGGAGGUAUAUCGAAUUUUCGGCGGAUGCCUCCAAA [A12C U46A]")
2440
>>> reported_value("AUAAAAGCGCCAGAACUACAGAAAUGUAGUUGACGAGGCGGAGGUUUAUCGAAUUUUCGGCGGGUGCCUCCAAA [A39C A64G]")
1870
>>> reported_value("AUAAAAGCGCCAGUACUACAGAAAUGUAGUUGACGAGGAGGAGGUUUAUCGAAUUUUCGGCGGAUGCCACCAAA [A14U U69A]")
802
>>> reported_value("AUAAAAGCGCCAGAACUACAGAAAUGUAAUUCACGAGGAGGAGGUUUAUCGAAUUUUCGGCGGAUGCCUCCAAA [G29A G32C]")
5140

Inquiry: For the variant shown here, AUAAAAGCGCCUGUACUACAGAAAUGUAGUUGACGAGGAGGAGGUUUAUCGAAUUUUCGGCGGAUGCCUCCAAA [A12U A14U] , give the reported KM.
Reply text: 2000

Inquiry: Which KM is reported for this variant? AUAAAAGCGCCAGAACUACAGAAAUGUAGUUGACGAGGAGGUGGUUUAUCGAAUCUUCGGCGGAUGCCUCCAAA [A42U U55C]
Reply text: 1350
